- test.method.notes: Pharmacokinetic study in minipigs (i.v.)
- Format: in vivo, Göttingen minipigs
- condition.context: female, Göttingen, minipig, plasma, iv; i.v. administration to minipigs, 2 nmol/kg; read-out: Terminal half-life t1/2 (converted)
Numbered stars: 1 amine (or outer) side, 2 acyl side, 3 side chain; on linkers, the order of the positions; unused ones are H or OH. Square brackets hold non-standard residues; d marks the D form. Side chains are listed from the residue outwards. * marks the point of attachment. C20 diacid = O=C(O)CCCCCCCCCCCCCCCCCCC(=O)*; C18 diacid = O=C(O)CCCCCCCCCCCCCCCCC(=O)*; γGlu = O=C(O)[C@H](CCC(=O)[*:2])N[*:1]; AEEA = NCCOCCOCC(=O)O; Aib = CC(C)(N)C(=O)O
Returns: string. Value is Met if measured half-life is below 80 h, and Not met if it is greater than or equal to it.

substance	answer.label
Y[Aib]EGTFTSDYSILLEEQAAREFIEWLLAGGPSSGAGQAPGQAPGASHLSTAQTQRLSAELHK([AEEA-AEEA-γGlu-C20 diacid])LATLPRTETGSGSP-NH2 [Compound 115]	Not met
H[Aib]HGTFTSDYSILLEEQAAREFIEWLLAGGPSSGAGQAPGQAPLASHLSTAQTQRLSAELHK([AEEA-AEEA-γGlu-C18 diacid])LATLPRTETGSGSP-NH2 [Compound 93]	Met
H[Aib]HGTFTSDYSILLEEQAAREFIEWLLAGGPSSGAGQAPGQAPGASHLSTAQTQRLSAELHRLK([AEEA-AEEA-γGlu-C18 diacid])TLPRTETGSGSP-NH2 [Compound 91]	Met
H[Aib]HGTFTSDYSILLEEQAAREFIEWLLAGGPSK([AEEA-AEEA-γGlu-C18 diacid])GAPPPSGGGEASHLSTAQTARLSAELHQLATLPRTETGSGSP-NH2 [compound 101]	Not met
